Entry source: ChEMBL document CHEMBL1201862

# System: SF-268
# assay notes: NCI tumour cell line growth inhibition, 48 h
The source made the active and inactive calls. No stated cut-off is given here; in the data, active = GI50 up to about 1.1 µM and inactive = higher.
I would appreciate it if you answered using one of these outcomes: active, inactive

Consider the following illustrative entries.
{"columns": ["molecule", "answer label"],
 "data": [
  ["COc1ccc([C@H]2C=C(c3cc(F)c(Cl)cc3Cl)N=c3s/c(=C\\c4ccc(-c5ccc(Cl)cc5Cl)o4)c(=O)n32)cc1", "inactive"],
  ["COc1cc(C(=O)N[C@H]2CCc3cc(OC)c(OC)c(OC)c3-c3ccc(SC)c(=O)cc32)cc(OC)c1OC", "active"],
  ["CN(/N=C\\c1ccc2ccccc2c1)C1=NCCN1", "inactive"]
]}

Now consider a different molecule.
Hello, I am checking results. What call was entered for COc1cc2c3cc1Oc1c(OC)c(OC)cc4c1C(=NCC4)Cc1ccc(cc1)Oc1cc(ccc1O)C[C@H]3N(C)CC2 ?
inactive
